src = paper PMC6025808

Molecular target: GK-WT (recombinant wild type human β-cell glucokinase) (Homo sapiens)
Sequence (P35557 whole entry): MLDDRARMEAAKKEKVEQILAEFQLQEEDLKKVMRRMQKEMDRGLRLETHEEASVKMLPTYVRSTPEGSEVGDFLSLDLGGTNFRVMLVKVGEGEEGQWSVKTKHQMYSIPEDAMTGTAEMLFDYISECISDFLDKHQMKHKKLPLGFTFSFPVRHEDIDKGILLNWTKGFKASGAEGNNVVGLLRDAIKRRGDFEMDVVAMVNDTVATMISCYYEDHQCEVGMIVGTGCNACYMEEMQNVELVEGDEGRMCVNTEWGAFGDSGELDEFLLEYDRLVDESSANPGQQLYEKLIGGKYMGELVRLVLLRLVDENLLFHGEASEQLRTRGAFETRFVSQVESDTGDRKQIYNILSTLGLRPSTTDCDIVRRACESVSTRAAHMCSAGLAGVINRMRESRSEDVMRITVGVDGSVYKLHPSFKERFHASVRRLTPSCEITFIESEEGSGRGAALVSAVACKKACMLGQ
Experiment: D-glucose binding to GK-WT by tryptophan fluorescence titration
Conditions: D-glucose binding KD, 2 M L-glucose
PARAMETER_MEASURED: pKd
Field pKd (float): negative decimal logarithm of the concentration in molar.

q: What value of measured pKd is listed for OC[C@H]1OC(O)[C@H](O)[C@@H](O)[C@@H]1O (stereo partly shown) ?
a: 2.95

* * *

Molecular target: GK-WT (recombinant wild type human β-cell glucokinase) (Homo sapiens)
Test: D-glucose binding to GK-WT by tryptophan fluorescence titration
Details: D-glucose binding KD, 1 M sucrose
PARAMETER_MEASURED: Kd (mM)
Field format: number, assumed mM, no unit text.

q: Suppose we examine the molecule OC[C@H]1OC(O)[C@H](O)[C@@H](O)[C@@H]1O (stereo partly shown) ; what Kd value has been reported?
a: 3.57
